Tested on: rabbit aortas
Test: Contraction of rabbit aortas induced by noradrenaline in a medium without calcium
Parameters: species or system New Zealand rabbit
Settings: Oryctolagus cuniculus, 0.5 h; compound 10^-6 M, rabbit aorta, incubated 30 minutes
Where a name gives a salt, the structure may show the parent alone.
Would you mind telling me the reported inhibition at 1 µM of each entry?
Could you give me the number in %? Just the number is fine.

Notebook entry, rabbit aortas assay: inhibition at 1 µM of CN(C1CCN(CCCCOc2ccccc2)CC1)S(=O)(=O)c1cccc2cnccc12 [Example 3, fumarate] = ?
47

# returns recorded inhibition at 1 µM (system: rabbit aortas) for O=S(=O)(NCC1CCN(CCCNc2ccc(F)cc2)CC1)c1cccc2cnccc12 [Example 24, fumarate]
67

Give recorded inhibition at 1 µM with rabbit aortas for the following molecule: COc1ccc(OCCCCN2CCC(N(C)S(=O)(=O)c3cccc4cnccc34)CC2)cc1 [Example 7, hydrochloride]
13

====

System: rabbit aortas
Experiment: Contraction of rabbit aortas induced by noradrenaline in a medium without calcium
Parameters: species or system New Zealand rabbit
Conditions: Oryctolagus cuniculus, 0.5 h; compound 10^-7 M, rabbit aorta, incubated 30 minutes
Structures can show the parent of a compound that is named as a salt.
Please provide measured inhibition at 0.1 µM for the entries that follow.
Give the value in % but do not write % after it.

# query: inhibition at 0.1 µM of entry CN(CC1CCN(CCCOc2ccc(F)cc2)CC1)S(=O)(=O)c1cccc2cnccc12.Cl.Cl [Example 17, dihydrochloride]
40

Which inhibition at 0.1 µM value is on record for CN(CC1CCN(CCCOc2ccccc2)CC1)S(=O)(=O)c1cccc2cnccc12 ?
31

Look up inhibition at 0.1 µM for this compound: CN(CC1CCN(CCCCOc2ccc(F)cc2)C1)S(=O)(=O)c1cccc2cnccc12 (stereo not shown) [Example 21, dihydrochloride]
17

Entry under review: O=S(=O)(NCC1CCN(CCCNc2ccc(F)cc2)CC1)c1cccc2cnccc12 [Example 24, fumarate] . Reported inhibition at 0.1 µM?
38
